# key: entry, value: melting point

[[record]]
compound = "CN(C)c1cccc2c(S(=O)(=O)Nc3ccc4nonc4c3)cccc12"
value_reported = "106 °C"

[[record]]
compound = "Nc1nc2c(Oc3cc(-c4ccc(C(F)(F)F)cc4)ncn3)cccc2s1"
value_reported = "232 to 234 °C"

[[record]]
compound = "CC(C)N(C)c1nc(Nc2cccc(NS(C)(=O)=O)c2)nc2[nH]cnc12"
value_reported = "144 to 147 °C"


Let's switch to this compound now.
[in] Entry under review: N#CC1=CCC23OCOC2=C1c1c(C#N)cccc1OCO3 (stereo not given) . Reported melting point?
[out] 213 to 215 °C

----------
compounds and their reported melting point

In the examples that follow, each entry is paired with its recorded melting point.
[[record]]
compound = "COC(=O)CC1SC2=Nc3ccccc3CN2C1=O (stereo unspecified)"
value_reported = "143 to 144 °C"

[[record]]
compound = "CC(=O)Nc1cccc(C#CC=Cc2cccc(NC(C)=O)c2)c1"
value_reported = "276 to 278 °C"

[[record]]
compound = "CC(=O)N1N=C(c2ccc([N+](=O)[O-])c(C)c2)c2cc3c(cc2CC1C)OCO3 (stereo unspecified)"
value_reported = "123 to 127 °C"

[[record]]
compound = "COc1ccc(C2CCN(C(=O)C(N)=O)CC2)cc1CC1CCCC1"
value_reported = "117 to 118 °C"


[in] So what's the measured melting point for this one? CCOC(=O)c1sc2ccc(Br)cc2c1C
[out] 87 to 88 °C

[in] Requested field: melting point. Item: CCN1CC(NC(=O)c2cc(Cl)c(N)cc2OC)C=N1 (stereo unspecified)
[out] 132 to 134 °C

[in] melting point lookup needed for COC1CC(N2CCCC2)C(N(C)C(=O)COc2cccc(F)c2)CC1OC (stereo unspecified) , thanks.
[out] 119 to 121 °C

[in] Please report the recorded melting point for CC(=O)N1[C@@H](c2ccc(Cl)cc2)SC(C)(C)[C@@H]1C(=O)O .
[out] 197 to 198 °C

[in] Could you tell me which melting point is on file for CC(C)(C)OC(=O)c1ccccc1-c1ccc(CBr)cc1 ?
[out] 98 to 101 °C

[in] Bench note: what melting point did CCCCc1nc2c(c(=O)[nH]1)CN(C(=O)OCC[Si](C)(C)C)CC2 show?
[out] 152 to 155 °C

[in] What value of measured melting point is listed for Cc1cnc(CCCC#N)c([N+](=O)[O-])c1 ?
[out] 53 to 55 °C

----------
Each item that follows carries a reported melting point.

[[record]]
structure_smiles_string = "Cc1[nH]c(=O)oc1C(=O)c1ccc(-n2ccnc2)cc1"
readout_label = "melting point"
value_reported = "320 °C"

[[record]]
structure_smiles_string = "Cn1c(=O)n2nc(-c3ccc(Cl)cc3)nc2c2ccccc21"
readout_label = "melting point"
value_reported = "323 to 325 °C"

[[record]]
structure_smiles_string = "C=CCOC(=O)NC(C)(C)c1ccc(-c2nc(Nc3ccc(CCN4CCOCC4)cc3)ncc2Cl)cc1"
readout_label = "melting point"
value_reported = "65 to 69 °C"

[[record]]
structure_smiles_string = "CCCCCCCCCCCCn1nnc(C(=NOC)C(=O)Nc2c(OC)cc(OC)cc2OC)n1"
readout_label = "melting point"
value_reported = "84 to 85 °C"


Turning now to a further molecule:
[in] Would you mind telling me what melting point value was observed for Nc1ccc(F)c(-c2cccnc2)c1F ?
[out] 112 to 113 °C
